Source listed as the supplement of paper PMC13380429.

Tested on: Caco-2
Assay: cell viability relative to DMSO; higher = less toxic
Settings: 72 h; 10000 nM
Below, each of the molecules is paired with its reported cell viability value.
Measure: cell viability (%)

[
  {
    "Molecule": "O=[N+]([O-])c1cccc2c(Br)n[nH]c12",
    "Experimental Target": "Caco-2",
    "Scale Unit": "%",
    "Obs Value": 99.3
  },
  {
    "Molecule": "COc1cc(F)c(C(C)C)cc1-c1ccc(C(F)(F)F)cc1CN1C(=O)O[C@H](c2cc(C(F)(F)F)cc(C(F)(F)F)c2)[C@@H]1C",
    "Experimental Target": "Caco-2",
    "Scale Unit": "%",
    "Obs Value": 93.8
  },
  {
    "Molecule": "O=C(N/N=C/c1ccc(O)c(O)c1)c1cc2ccccc2cc1O",
    "Experimental Target": "Caco-2",
    "Scale Unit": "%",
    "Obs Value": 92.8
  },
  {
    "Molecule": "C=C(NC(=O)C(=C)NC(=O)c1csc(C2=N[C@@H]3c4csc(n4)[C@H]4NC(=O)c5csc(n5)[C@H]([C@](C)(O)[C@@H](C)O)NC(=O)[C@H]5CSC(=N5)/C(=C/C)NC(=O)[C@H]([C@@H](C)O)NC(=O)c5csc(n5)[C@]3(CC2)NC(=O)[C@H](C)NC(=O)C(=C)NC(=O)[C@H](C)NC(=O)[C@H]([C@@H](C)CC)N[C@@H]2C=Cc3c([C@H](C)O)cc(nc3[C@H]2O)C(=O)O[C@@H]4C)n1)C(N)=O",
    "Experimental Target": "Caco-2",
    "Scale Unit": "%",
    "Obs Value": 96.9
  },
  {
    "Molecule": "CN[C@H](CC(C)C)C(=O)N[C@H]1C(=O)N[C@@H](CC(N)=O)C(=O)N[C@H]2C(=O)N[C@H]3C(=O)N[C@H](C(=O)N[C@H](C(=O)O)c4cc(O)cc(O)c4-c4cc3ccc4O)[C@H](O[C@H]3C[C@](C)(N)[C@@H](O)[C@H](C)O3)c3ccc(c(Cl)c3)Oc3cc2cc(c3O[C@@H]2O[C@H](CO)[C@@H](O)[C@H](O)[C@H]2O[C@H]2C[C@](C)(NCc3ccc(-c4ccc(Cl)cc4)cc3)[C@@H](O)[C@H](C)O2)Oc2ccc(cc2Cl)[C@H]1O",
    "Experimental Target": "Caco-2",
    "Scale Unit": "%",
    "Obs Value": 102
  },
  {
    "Molecule": "c1ccc2c(c1)CCCc1cc(NCCN3CCOCC3)nnc1-2",
    "Experimental Target": "Caco-2",
    "Scale Unit": "%",
    "Obs Value": 87.7
  },
  {
    "Molecule": "CCC(=O)O[C@@H](O[P@@](=O)(CCCCc1ccccc1)CC(=O)N1C[C@H](C2CCCCC2)C[C@H]1C(=O)O)C(C)C",
    "Experimental Target": "Caco-2",
    "Scale Unit": "%",
    "Obs Value": 103
  },
  {
    "Molecule": "CN(C)Cc1c(C(=O)NCCOc2ccc(C(=O)NO)cc2)oc2ccccc12",
    "Experimental Target": "Caco-2",
    "Scale Unit": "%",
    "Obs Value": 1.4
  },
  {
    "Molecule": "COC(=O)C1=C(C#N)NC(C)=C(C(=O)OC(C)C)C1c1cccc([N+](=O)[O-])c1 (stereo unspecified)",
    "Experimental Target": "Caco-2",
    "Scale Unit": "%",
    "Obs Value": 96
  },
  {
    "Molecule": "N=C(C[C@@H](O)COc1ccccc1-c1ccccc1)N1CCCCC1",
    "Experimental Target": "Caco-2",
    "Scale Unit": "%",
    "Obs Value": 89.5
  },
  {
    "Molecule": "Cc1cnc(Nc2ccc(OCCN3CCCC3)cc2)nc1Nc1cccc(S(=O)(=O)NC(C)(C)C)c1",
    "Experimental Target": "Caco-2",
    "Scale Unit": "%",
    "Obs Value": 11.9
  }
]
